solubility: recorded values
method summary: Solubility of 3,4-alkylenedioxythiophene compounds in water at 25° C.
Type: physicochemical
condition info: thermodynamic from solid, visually adjudged dissolved

The measured solubility associated with O=C(O)COCC1COc2cscc2O1 (centres unmarked) [M3] reads ~2700 µg/mL

====

method summary: Solubility of 3,4-alkylenedioxythiophene compounds in water at 25° C.
Type: physicochemical
condition info: thermodynamic from solid, visually adjudged dissolved
solubility: recorded values

Recorded results for 2 compounds are shown here.
compound	observed
OCC1COc2cscc2O1 (stereo not shown)	~10000 µg/mL
O=S(=O)([O-])CCCCOCC1COc2cscc2O1.[Na+] (stereo not shown)	~167000 µg/mL

The measured solubility associated with "OC1COc2cscc2OC1" reads ~8200 µg/mL

The measured solubility associated with COCCOCCOCCOCC1COc2cscc2O1 (stereo not shown) reads ~4500 µg/mL
